Each entry below lists one item and its recorded MBC value.
Tested on: Clavibacter michiganensis subsp. michiganensis (Cmm)
Procedure summary: Minimum bacteriocidal concentration (MBC) for Cmm
Format: cell-based
Run conditions: read-out: MBCs
Please reply with the bare figure in µM and do not write the unit itself.

{"Compound": "COc1cccc(-c2ccc(NC(=O)C3CCCN(Cc4cccc(O)c4)C3)cc2)c1 (stereo not shown)", "MBC, µM": 25}
{"Compound": "Cc1cc(O)ccc1Nc1nc(-c2cccs2)cs1", "MBC, µM": 50}

Please turn your attention to the following entry.
Query CCOC(=O)N1CCN(CC(O)COc2ccc(C3CCCCC3)cc2)CC1 (stereo not shown) yields MBC of 50

###

Parameter: MBC. Scope: all listed entries.
Tested on: Clavibacter michiganensis subsp. michiganensis (Cmm)
Procedure summary: Minimum bacteriocidal concentration (MBC) for Cmm
Assay type: cell-based
Run conditions: read-out: MBCs
Give the value in µM but do not write µM after it.

{"Molecule": "CC1CCC(C(C)C)C(OC(=O)Cn2c[n+](CC(=O)OC3CC(C)CCC3C(C)C)c3ccccc32)C1 (stereo not shown) [Compound 5]", "Measurement target": "Clavibacter michiganensis subsp. michiganensis (Cmm)", "MBC (µM)": 5}
{"Molecule": "CC(C)Cc1ccc(CN2CCCC(NC(=O)CCn3c(CO)nc4ccccc43)C2)cc1 (stereo not shown) [Compound 4]", "Measurement target": "Clavibacter michiganensis subsp. michiganensis (Cmm)", "MBC (µM)": 100}
{"Molecule": "O=C(Nc1cccc(-c2cscn2)c1)C1CCN(C/C=C/c2ccc(F)cc2)CC1 [Compound 6]", "Measurement target": "Clavibacter michiganensis subsp. michiganensis (Cmm)", "MBC (µM)": 50}

Lab note: measured MBC of CCCOc1ccc(C(=O)C2=C(O)C(=O)N(CCCN(C)C)C2c2ccc(Cl)cc2)cc1C (stereo not shown) [Compound 9] was 100

Sample COc1cccc(-c2ccccc2NC(=O)C2CCN(Cc3ccc(OC)cc3F)CC2)c1 [Compound 1] ; MBC observed: 25

response.value for CN(Cc1nc2ccccc2[nH]1)Cc1c[nH]nc1-c1ccc(-c2ccccc2)cc1 [Compound 2] (field: MBC) = 50

Record Cc1ccnc(Nc2nc(-c3ccc(O)c(O)c3)cs2)c1 [Compound 7] , field MBC: 50
